Assay: Solubility of Paclitaxel modified drug in saline solvent systems by HPLC
Details: aqueous with cosolvent or surfactant or cyclodextrin, thermodynamic from solid, Solubility in 5% DMA in normal saline, 5% DMA in normal saline
reported-metric: solubility

Query block: # input compound: CC(=O)O[C@H]1C(=O)C2(C)C([C@H](OC(=O)c3ccccc3)[C@]3(O)C[C@H](OC(=O)[C@H](OC(=O)c4ccc[n+](C)c4)[C@H](NC(=O)c4ccccc4)c4ccccc4)C(C)=C1C3(C)C)[C@]1(OC(C)=O)CO[C@@H]1C[C@@H]2O.[I-] (stereo partly shown) [Compound 1001] ; wanted: its solubility
Result block: ~1000 µg/mL

====

Test: Pharmacokinetics in SD rats, IV dosing (Docetaxel and 1008)
Format: in vivo
Settings: Sprague-Dawley, rat, plasma, 10 mg/kg, 10 mpk IV, PEG400 and Normal saline
Description: The results were compared with exposure of Docetaxel (10 mpk) using the same dosing vehicle. Supernatant was kept for analysis.
reported-metric: Cmax
Kindly write the number and append the unit.

Query block: # input compound: CC(=O)O[C@@]12CO[C@@H]1C[C@H](O)[C@@]1(C)C(=O)[C@H](O)C3=C(C)[C@@H](OC(=O)[C@H](O)[C@@H](NC(=O)OC(C)(C)C)c4ccccc4)C[C@@](O)([C@@H](OC(=O)c4ccccc4)[C@H]21)C3(C)C [Docetaxel, reference compound] ; wanted: its Cmax
Result block: 495 nM

====

Assay: Pharmacokinetics in SD rats, IV dosing (Docetaxel and 1008)
Format: in vivo
Settings: Sprague-Dawley, rat, plasma, 3 mg/kg, 3 mpk IV, PEG400 and Normal saline
reported-metric: AUC (µM·h)
Provide the reading as a plain figure in µM·h.

Query block: # input compound: CC(=O)O[C@@]12CO[C@@H]1C[C@H](O)[C@@]1(C)C(=O)[C@H](O)C3=C(C)[C@@H](OC(=O)[C@H](OC(=O)c4ccc[n+](C)c4)[C@@H](NC(=O)OC(C)(C)C)c4ccccc4)C[C@@](O)([C@@H](OC(=O)c4ccccc4)[C@H]21)C3(C)C.[I-] ; wanted: its AUC
Result block: 1.04

====

Assay: Pharmacokinetics in SD rats, IV dosing (Docetaxel and 1008)
Format: in vivo
Conditions: Sprague-Dawley, rat, plasma, 3 mg/kg, 3 mpk IV, PEG400 and Normal saline
reported-metric: Cmax (µM)
Provide the reading as a plain figure in µM.

Query block: # input compound: CC(=O)O[C@@]12CO[C@@H]1C[C@H](O)[C@@]1(C)C(=O)[C@H](O)C3=C(C)[C@@H](OC(=O)[C@H](OC(=O)c4ccc[n+](C)c4)[C@@H](NC(=O)OC(C)(C)C)c4ccccc4)C[C@@](O)([C@@H](OC(=O)c4ccccc4)[C@H]21)C3(C)C.[I-] ; wanted: its Cmax
Result block: 6.92

====

Assay: Solubility of Paclitaxel modified drug in saline solvent systems by HPLC
Conditions: normal saline, saline or isotonic, thermodynamic from solid, Solubility in Normal saline
reported-metric: solubility (µg/mL)
Provide the reading as a plain figure in µg/mL.

Query block: # input compound: CC(=O)O[C@H]1C(=O)[C@@]2(C)[C@H]([C@H](OC(=O)c3ccccc3)[C@]3(O)C[C@H](OC(=O)[C@H](O)[C@@H](NC(=O)c4ccccc4)c4ccccc4)C(C)=C1C3(C)C)[C@]1(OC(C)=O)CO[C@@H]1C[C@@H]2O [Paclitaxel, reference compound] ; wanted: its solubility
Result block: 0.1
